Sourced from patent US20250025411A1

Assay: High throughput screening of water-soluble solid excipients for glucagon dissolution
Assay type: physicochemical
Settings: 30-minute incubation in pH 7.4 PBS containing 1 mg/mL excipient, 37° C.
Values of Fold change vs. PBS Avg. greater than or equal to 2 fold map to 1; values below map to -1.

{"columns": ["compound", "group"],
 "data": [
  ["O=C1NS(=O)(=O)c2ccccc21.[Na] [Saccharin Sodium]", -1],
  ["O=C(O)[C@H](O)[C@@H](O)[C@H](O[C@@H]1O[C@H](CO)[C@H](O)[C@H](O)[C@H]1O)[C@H](O)CO", -1],
  ["[Cl-].[K+] [Potassium chloride]", -1],
  ["NCCCC[C@H](N)C(=O)O", 1]
]}
